Value source: the Immune Epitope Database (IEDB)

molecular target: HLA-A*02:01; assay: IEDB peptide-MHC binding, purified MHC/competitive/radioactivity; bounds were set here for any values at or beyond the usual limits of such assays; details: source organism: Vaccinia virus WR
pIC50: −log10 of the molar value.
Label YES when pIC50 is at or above 6; otherwise label NO.

Data request: Quick check: does TTTFITVLT have pIC50 greater than or equal to 6?
Data returned: NO

Data request: Hi team, for PLYEVNSTMT , is the recorded pIC50 at or above 6?
Data returned: NO

Data request: Quick check, pIC50 >= 6? SIFINKLNGA
Data returned: NO

Data request: Given ILLILSCIFA , state whether its pIC50 is at least 6.
Data returned: YES

Data request: Record CIVAAVIIM ; criterion: pIC50 no lower than 6. Met?
Data returned: NO

Data request: For this sequence, is measured pIC50 6 or higher? AIMESDSFL
Data returned: YES

Data request: Quick check, pIC50 >= 6? NMLDDFSAGA
Data returned: YES

Data request: Given IAGGVCYYL , state whether its pIC50 is at least 6.
Data returned: NO

Data request: For this sequence, is measured pIC50 6 or higher? GAENIVFNL
Data returned: NO

Data request: Has PVNAINDRL a recorded pIC50 greater than or equal to 6?
Data returned: NO

Data request: Check the entry LLYILRYIV : does pIC50 equal or exceed 6?
Data returned: YES

Data request: For this sequence, is measured pIC50 6 or higher? KLQAAPYIV
Data returned: YES

Data request: Determine whether this sequence has pIC50 no lower than 6: VTMVDKPTEL
Data returned: NO

Data request: API: above_or_equal(metric=pIC50, cutoff=6) for item NTIDQTANV
Data returned: YES

Data request: Hi team, for FIILLLAIV , is the recorded pIC50 at or above 6?
Data returned: YES

Data request: Textbook exercise: given the entry ELVRYIELV , state whether its pIC50 is greater than or equal to 6.
Data returned: YES

Data request: pIC50 >= 6 for YILHSDYQL ?
Data returned: YES

Data request: Does IMVTDTINT have a reported pIC50 of at least 6?
Data returned: NO

Data request: hey, is pIC50 for this one >= 6? SMSSYDFST
Data returned: YES

Data request: State whether the measured pIC50 reaches 6, counting equality as reaching it, for VVVPIKFIA
Data returned: NO

Data request: Is pIC50 for FVNDLMTMNI at or above 6?
Data returned: YES

Data request: Dear colleague, could you confirm whether YMDLSYHGV has pIC50 at or above 6?
Data returned: YES

Data request: Say whether FLIPKGFYA shows pIC50 of 6 or more.
Data returned: YES

Data request: I'd appreciate it if you could say whether SISSVLTIL has pIC50 at least equal to 6.
Data returned: YES

Data request: Textbook exercise: given the entry RVETSPRPT , state whether its pIC50 is greater than or equal to 6.
Data returned: NO

Data request: Is it the case that AVISKVTYSL has pIC50 reaching or exceeding 6?
Data returned: NO

Data request: Check if pIC50 >= 6 (inclusive). Item: ATLNTLITL
Data returned: YES

Data request: Would you say TVGMSIVCIV shows pIC50 at minimum 6?
Data returned: YES

Data request: Assess whether reported pIC50 for SMSQELAEL sits at 6 or higher.
Data returned: YES
